Measured pIC50, listed per entry.
Test system: human AXL (473-end) (Homo sapiens)
Construct: human AXL (473-end); purchased SignalChem, Canada
Sequence (P30530 473-894 limits assumed): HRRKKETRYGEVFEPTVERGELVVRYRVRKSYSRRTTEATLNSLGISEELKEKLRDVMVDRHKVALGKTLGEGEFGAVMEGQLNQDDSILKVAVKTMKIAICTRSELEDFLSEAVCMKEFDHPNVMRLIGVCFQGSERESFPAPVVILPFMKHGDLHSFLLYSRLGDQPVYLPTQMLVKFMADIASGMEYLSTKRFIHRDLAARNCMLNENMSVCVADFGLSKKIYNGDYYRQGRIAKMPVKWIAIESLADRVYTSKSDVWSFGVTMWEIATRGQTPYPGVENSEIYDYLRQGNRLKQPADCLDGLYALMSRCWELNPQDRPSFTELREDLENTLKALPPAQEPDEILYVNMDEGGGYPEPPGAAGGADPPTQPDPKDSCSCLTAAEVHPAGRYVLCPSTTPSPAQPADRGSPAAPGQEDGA
Run description: HTRF kinase activity biochemical assay, AXL
Measurement context: 10 μM ATP, 30 minutes pre-incubation
pIC50: −log10 of the molar value.
Value kind: pIC50

> print(dat)
                                    compound  value.kind  result.value
 1  Nc1ncc(-c2ccc(F)nc2)cc1C(=O)N[C@H]1COC[C@@H]1OCc1ccc(-c2ccc3c(c2)CCC3N2CCN(CCO)CC2)cc1 (stereo partly drawn)       pIC50  7.00 to 8.00
 2  Cn1cc(-c2cnc(N)c(C(=O)N[C@H]3CCC[C@@H]3OCc3ccc(-c4ccc5c(c4)C(C)(C)C[C@@H]5N4CCN(CCO)CC4)cc3)c2)cn1       pIC50        > 8.00
 3  CN1CCN([C@@H]2CC(C)(C)c3cc(-c4ccc(CO[C@H]5CCC[C@@H]5NC(=O)c5cc(-c6cnn(C)c6)cnc5N)cc4)ccc32)CC1       pIC50  7.00 to 8.00
 4  COc1ccc(-c2cnc(N)c(C(=O)N[C@H]3CCC[C@@H]3OCc3ccc(-c4ccc5c(c4)CC[C@@H]5N4CCN(CCO)CC4)cc3)c2)cn1       pIC50        > 8.00
 5  Cn1cc(-c2cnc(N)c(C(=O)N[C@H]3CCC[C@@H]3OCc3ccc(-c4ccc5c(c4)CCC5N4CCN(CC5COC(C)(C)O5)CC4)cc3)c2)cn1 (stereo partly drawn)       pIC50        > 8.00
 6  CN1CCN(C2CCC(C)(C)c3cc(-c4ccc(CO[C@H]5CCC[C@@H]5NC(=O)c5cc(-c6cnn(C)c6)cnc5N)cc4)ccc32)CC1 (stereo partly drawn)       pIC50        > 8.00
 7  Nc1ncc(-c2ccc(F)nc2)cc1C(=O)N[C@H]1CCC[C@@H]1OCc1ccc(-c2ccc3c(c2)C2(CC2)CN(C2CCN(CCO)CC2)C3)cc1       pIC50        < 6.00
 8  Cn1cc(-c2cnc(N)c(C(=O)N[C@H]3CCC[C@@H]3OCc3ccc(-c4ccc5c(C6CCN(CCO)CC6)cn(C)c5c4)cc3)c2)cn1       pIC50  7.00 to 8.00
 9  COc1cccc(-c2cnc(N)c(C(=O)N[C@H]3CCC[C@@H]3OCc3ccc(-c4ccc5c(c4)CC[C@@H]5N4CCN(CCO)CC4)cc3)c2)n1       pIC50        > 8.00
10  CN1CCC(C(=O)NC2Cc3ccc(-c4ccc(CO[C@H]5CCC[C@@H]5NC(=O)c5cc(-c6cnn(C)c6)cnc5N)cc4)cc3C2)CC1 (stereo partly drawn)       pIC50  7.00 to 8.00
11  Cn1cc(-c2cnc(N)c(C(=O)N[C@H]3CCC[C@@H]3OCc3ccc(-c4ccc5c(c4)C(C)(C)CCC5N4CCN(CCO)CC4)cc3)c2)cn1 (stereo partly drawn)       pIC50        > 8.00
12  Cn1cc(-c2cnc(N)c(C(=O)N[C@H]3CCC[C@@H]3OCc3ccc(-c4ccc5c(ccn5C(F)F)c4)cc3)c2)cn1       pIC50  7.00 to 8.00

###

Test system: human MER (528-end) (Homo sapiens, UniProt Q12866)
Construct: human MER (528-end); purchased Camnabio, Japan
Sequence (Q12866 528-999 limits assumed): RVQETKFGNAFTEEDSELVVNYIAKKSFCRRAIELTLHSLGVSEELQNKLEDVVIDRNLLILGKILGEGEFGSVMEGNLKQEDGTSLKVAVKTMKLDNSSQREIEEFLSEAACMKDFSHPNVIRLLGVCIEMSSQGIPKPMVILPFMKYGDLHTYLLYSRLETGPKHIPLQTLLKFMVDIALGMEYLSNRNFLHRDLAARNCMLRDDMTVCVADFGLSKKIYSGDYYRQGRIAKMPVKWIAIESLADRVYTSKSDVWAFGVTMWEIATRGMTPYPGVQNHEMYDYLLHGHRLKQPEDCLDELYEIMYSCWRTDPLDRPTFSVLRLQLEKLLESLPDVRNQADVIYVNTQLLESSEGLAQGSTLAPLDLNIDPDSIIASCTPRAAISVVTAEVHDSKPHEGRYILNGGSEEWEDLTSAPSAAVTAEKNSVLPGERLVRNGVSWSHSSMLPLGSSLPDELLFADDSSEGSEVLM
Run description: HTRF kinase activity biochemical assay, MER
Measurement context: 10 μM ATP, 30 minutes pre-incubation; read-out: HTRF MERTK IC50

Compound	Test system	IC50
Cn1cc(-c2cnc(N)c(C(=O)N[C@H]3CCC[C@@H]3OCc3ccc(-c4ccc5c(ccn5CCN)c4)cc3)c2)cn1 [Example 67]	human MER (528-end) (Homo sapiens, UniProt Q12866)	< 10 nM
Cn1cc(-c2cnc(N)c(C(=O)N[C@H]3CCC[C@@H]3OCc3ccc(-c4ccc5c(c4)C(C)(C)CC5N4CCN(CCO)CC4)cc3)c2)cn1 (stereo partly drawn) [Example 83]	human MER (528-end) (Homo sapiens, UniProt Q12866)	< 10 nM
CC1(C)C[C@@H](N2CCN(CCO)CC2)c2ccc(-c3ccc(CO[C@H]4CCC[C@@H]4NC(=O)c4cc(-c5ccc(F)nc5)cnc4N)cc3)cc21 [Example 97]	human MER (528-end) (Homo sapiens, UniProt Q12866)	100 to 1000 nM
CC1(C)CC(N2CCN(CCO)CC2)c2ccc(-c3ccc(CO[C@H]4CCC[C@@H]4NC(=O)c4cc(-c5ccc(F)nc5)cnc4N)cc3)cc21 (stereo partly drawn) [Example 84]	human MER (528-end) (Homo sapiens, UniProt Q12866)	< 10 nM
Nc1ncc(C(F)(F)F)cc1C(=O)N[C@H]1COC[C@@H]1OCc1ccc(-c2ccc3c(ccn3C3CCN(CCO)CC3)c2)cc1 [Example 24]	human MER (528-end) (Homo sapiens, UniProt Q12866)	10 to 100 nM
Cn1cc(-c2cnc(N)c(C(=O)N[C@H]3CCC[C@@H]3OCc3ccc(-c4ccc5c(c4)CCC[C@@H]5N4CCN(C[C@H](O)CO)CC4)cc3)c2)cn1 [Example 171]	human MER (528-end) (Homo sapiens, UniProt Q12866)	< 10 nM

###

Measured % inhibition, listed per entry.
System: phospho-MerTK in BaF3.MerTK tumors
Run description: In vivo Ba/F3 pMER ALISA assay
Measurement context: 50 milligrams per kilogram, orally; single dose, tumors harvested 4 hours after; phospho-MerTK normalized to total MerTK
Value kind: % inhibition (%)

> print(dat)
                                    molecule  result.value
 1  CC1(C)C[C@H](N2CCN(CCO)CC2)c2ccc(-c3ccc(CO[C@H]4CCC[C@@H]4NC(=O)c4cc(-c5cccnc5F)cnc4N)cc3)cc21            89
 2  Cn1cc(-c2cnc(N)c(C(=O)N[C@H]3CCC[C@@H]3OCc3ccc(-c4ccc5c(c4)CC[C@@H]5N4CCN5C[C@H](O)C[C@H]5C4)cc3)c2)cn1            85
 3  CN1CCN(C2CC(C)(C)c3cc(-c4ccc(CO[C@H]5CCC[C@@H]5NC(=O)c5cc(-c6cnn(C)c6)cnc5N)cc4)ccc32)CC1 (stereo partly drawn)            53
 4  Nc1ncc(-c2cccnc2F)cc1C(=O)N[C@H]1CCC[C@@H]1OCc1ccc(-c2ccc3c(c2)CC[C@@H]3N2CCN3C[C@H](O)C[C@H]3C2)cc1            75
 5  Cn1cc(-c2cnc(N)c(C(=O)N[C@H]3CCC[C@@H]3OCc3ccc(-c4ccc5c(c4)C(C)(C)C[C@@H]5N4CCN(CCO)CC4)cc3)c2)cn1            74
 6  Nc1ncc(-c2ccc(F)nc2)cc1C(=O)N[C@H]1CCC[C@@H]1OCc1ccc(-c2ccc3c(c2)CC[C@@H]3N2CCN(CCO)CC2)cc1            37
 7  Cn1cc(-c2cnc(N)c(C(=O)N[C@H]3CCC[C@@H]3OCc3ccc(-c4ccc5c(c4)C(C)(C)C[C@@H]5N4CCN(C[C@H](O)CO)CC4)cc3)c2)cn1            76
 8  CN1CCN([C@H]2CC(C)(C)c3cc(-c4ccc(CO[C@H]5CCC[C@@H]5NC(=O)c5cc(-c6cnn(C)c6)cnc5N)cc4)ccc32)CC1            93
 9  CN1CCN([C@H]2CCCc3cc(-c4ccc(CO[C@H]5CCC[C@@H]5NC(=O)c5cc(-c6cnn(C)c6)cnc5N)cc4)ccc32)CC1            89
10  CC1(C)C[C@H](N2CCN(C[C@H](O)CO)CC2)c2ccc(-c3ccc(CO[C@H]4CCC[C@@H]4NC(=O)c4cc(-c5cccnc5F)cnc4N)cc3)cc21            74
11  COc1ccc(-c2cnc(N)c(C(=O)N[C@H]3CCC[C@@H]3OCc3ccc(-c4ccc5c(c4)CC[C@@H]5N4CCN(CCO)CC4)cc3)c2)cn1            66
12  Nc1ncc(-c2ccc(F)nc2)cc1C(=O)N[C@H]1CCC[C@@H]1OCc1ccc(-c2ccc3c(c2)CC[C@@H]3N2CCN3C[C@H](O)C[C@H]3C2)cc1            64

###

Test system: human MER (528-end) (Homo sapiens)
Construct: human MER (528-end); purchased Camnabio, Japan
Run description: HTRF kinase activity biochemical assay, MER
Measurement context: 10 μM ATP, 30 minutes pre-incubation; read-out: HTRF MERTK IC50
Value kind: IC50

Compound	Value kind	Result value
Cn1cc(-c2cnc(N)c(C(=O)N[C@H]3CCC[C@@H]3OCc3ccc(-c4ccc5c(c4)C(C)(C)CN5C4CCN(CCO)CC4)cc3)c2)cn1 [Example 13]	IC50	< 10 nM
Cn1cc(-c2cnc(N)c(C(=O)N[C@H]3COC[C@@H]3OCc3ccc(-c4ccc5c(c4)CC[C@@H]5N4CCN(CCO)CC4)cc3)c2)cn1 [Example 45]	IC50	< 10 nM
CC1(C)CC(N2CCN(CCO)CC2)c2ccc(-c3ccc(CO[C@H]4CCC[C@@H]4NC(=O)c4cc(-c5cccnc5F)cnc4N)cc3)cc21 (stereo partly drawn) [Example 119]	IC50	< 10 nM
Cn1cc(-c2cnc(N)c(C(=O)N[C@H]3CCC[C@@H]3OCc3ccc(-c4ccc5c(c4)C[C@H](F)[C@@H]5N4CCN(CCO)CC4)cc3)c2)cn1 (relative stereo) [Example 85]	IC50	< 10 nM
CN1CCN([C@H]2CCc3cc(-c4ccc(CO[C@H]5CCC[C@@H]5NC(=O)c5cc(-c6cccnc6F)cnc5N)cc4)ccc32)CC1 [Example 116]	IC50	< 10 nM
Cn1cc(-c2cnc(N)c(C(=O)N[C@H]3CCC[C@@H]3OCc3ccc(-c4cnc5c(c4)C(C)(C)C(=O)N5C4CCN(CCO)CC4)cc3)c2)cn1 [Example 76]	IC50	10 to 100 nM
